// reported MIC per item
- Test system: Pseudomonas aeruginosa KCTC 1637
- test description: ≥ marks a high value that may be exact or a test limit, other limits are often not marked, values filed in µg/mL are converted to µM
# number only, unit µM dropped from output

Please review the following examples before continuing.
molecule="CC[C@H](C)[C@H](NC(=O)[C@H](CCCCN)NC(=O)[C@H](CCCCN)NC(=O)[C@H](Cc1ccccc1)NC(=O)[C@H](CC(C)C)NC(=O)[C@H](CCCCN)NC(=O)[C@H](C)NC(=O)[C@@H](N)CCCCN)C(=O)N1CCC[C@H]1C(=O)N[C@@H](CCCCN)C(=O)N[C@@H](Cc1ccccc1)C(=O)N[C@@H](CC(C)C)C(=O)N[C@@H](Cc1cnc[nH]1)C(=O)N[C@@H](CC(C)C)C(=O)N[C@@H](Cc1c[nH]c2ccccc12)C(=O)N[C@@H](CCCCN)C(=O)N[C@@H](CCCCN)C(=O)N[C@@H](Cc1ccccc1)C(N)=O [KAKLFKKIPKFLHLWKKF]" readout_kind=MIC unit_of_measure=µM quantitative_readout=1
molecule="CC[C@H](C)[C@H](N)C(=O)N[C@@H](CC(C)C)C(=O)N[C@@H](CCCCN)C(=O)N[C@@H](Cc1c[nH]c2ccccc12)C(=O)N[C@@H](CCCCN)C(=O)N[C@@H](Cc1c[nH]c2ccccc12)C(=O)N1CCC[C@H]1C(=O)N[C@@H](Cc1c[nH]c2ccccc12)C(=O)N[C@@H](Cc1c[nH]c2ccccc12)C(=O)N[C@@H](CCCCN)C(=O)N[C@@H](Cc1c[nH]c2ccccc12)C(=O)N[C@@H](CCCN=C(N)N)C(=O)N[C@@H](CCCN=C(N)N)C(N)=O [ILKWKWPWWKWRR]" readout_kind=MIC unit_of_measure=µM quantitative_readout=5.08
molecule="CC[C@H](C)[C@H](N)C(=O)N[C@@H](CC(C)C)C(=O)N[C@@H](CCCCN)C(=O)N[C@@H](Cc1c[nH]c2ccccc12)C(=O)N[C@@H](CCCCN)C(=O)N[C@@H](Cc1c[nH]c2ccccc12)C(=O)N[C@@H](CCCCN)C(=O)N[C@@H](Cc1c[nH]c2ccccc12)C(=O)N[C@@H](Cc1c[nH]c2ccccc12)C(=O)N1CCC[C@H]1C(=O)N[C@@H](Cc1c[nH]c2ccccc12)C(=O)N[C@@H](CCCN=C(N)N)C(=O)N[C@@H](CCCN=C(N)N)C(N)=O [ILKWKWKWWPWRR]" readout_kind=MIC unit_of_measure=µM quantitative_readout=5.08
molecule="CC[C@H](C)[C@H](NC(=O)[C@H](CCCN=C(N)N)NC(=O)[C@H](CC(C)C)NC(=O)[C@H](CC(C)C)NC(=O)[C@@H](N)CCCN=C(N)N)C(=O)N[C@@H](Cc1c[nH]c2ccccc12)C(=O)N[C@@H](Cc1c[nH]c2ccccc12)C(=O)N[C@H](C(=O)N[C@@H](CCCN=C(N)N)C(=O)N[C@H](C(=O)N[C@@H](CC(C)C)C(=O)N[C@@H](CCCN=C(N)N)C(N)=O)C(C)C)[C@@H](C)CC [RLLRIWWIRVLR]" readout_kind=MIC unit_of_measure=µM quantitative_readout=3.72

Here is another molecule to look at.
MIC lookup needed for CC[C@H](C)[C@@H]1NC(=O)[C@H](CCCN=C(N)N)NC(=O)[C@@H](NC(=O)[C@H](CC(C)C)NC(=O)[C@@H](N)CCCN=C(N)N)CSSC[C@@H](C(=O)N[C@@H](CCCN=C(N)N)C(=O)O)NC(=O)[C@H](Cc2c[nH]c3ccccc23)NC(=O)[C@H](CCCN=C(N)N)NC(=O)[C@H]([C@@H](C)CC)NC(=O)[C@H](Cc2c[nH]c3ccccc23)NC(=O)[C@H](Cc2c[nH]c3ccccc23)NC1=O [RLCRIWWIRWCR] , thanks. 4

Sourced from DBAASP
